Biological target: human ERβ LBD (Homo sapiens, UniProt Q92731)
Sequence (Q92731 263-530): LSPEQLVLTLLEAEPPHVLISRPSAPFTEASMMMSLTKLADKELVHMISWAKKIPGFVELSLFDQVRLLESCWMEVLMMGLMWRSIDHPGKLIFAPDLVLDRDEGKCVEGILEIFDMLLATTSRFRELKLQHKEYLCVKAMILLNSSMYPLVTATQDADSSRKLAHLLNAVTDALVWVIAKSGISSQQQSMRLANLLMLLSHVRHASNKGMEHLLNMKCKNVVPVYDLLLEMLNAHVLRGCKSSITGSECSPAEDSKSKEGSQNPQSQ
Assay: ERβ agonist luciferase reporter assay in HEK 293T cells
Format: cell-based
Conditions: agonist assay, 10 μM
experimental.readout: ER subtype preference (ratio of ERα to ERβ agonist activity)

{"item.smiles": "C[C@]12CC[C@@H]3c4ccc(O)cc4CC[C@H]3[C@@H]1CC[C@@]2(O)c1cn(CCCCCCC(=O)NO)nn1", "target.or.system": "human ERβ LBD (Homo sapiens, UniProt Q92731)", "measured.result": "preferentially bind ERβ"}
{"item.smiles": "C[C@]12CC[C@@H]3c4ccc(O)cc4CC[C@H]3[C@@H]1CC[C@@]2(O)c1cn(CCCCCC(=O)NO)nn1", "target.or.system": "human ERβ LBD (Homo sapiens, UniProt Q92731)", "measured.result": "preferentially bind ERβ"}
